- System: SK-MEL-5 melanoma
- METHOD SUMMARY: NCI-60 one-dose screen, 48 h (100 = growth as untreated, 0 = no growth, -100 = all killed)
- RUN PARAMETERS: 10 µM
About 83,000 compounds went through this panel and 20% of them were active in at least one assay; those are over-represented in the sample as a whole.
Kind request: treat -90% as inclusive, so growth at -90% or higher is Yes, anything lower is No.

Determine whether this compound has growth no lower than -90%: O=C(CSc1nnc(-c2c[nH]c3ccccc23)n1-c1ccccc1)c1ccc(Cl)cc1
Yes

Would you kindly repeat that for Cc1cc(C)nc(SCC(=O)Nc2ccc(S(N)(=O)=O)cc2)n1 ?
Yes

Would you kindly repeat that for Cc1ccc(-c2nc(Nc3ccc(S(N)(=O)=O)cc3)c3ccccc3n2)cc1 ?
Yes

Would you kindly repeat that for Cc1cc(=O)oc2cc(OCCCCOc3ccc(/C=C/C(=O)Nc4cccc(Cl)c4)cc3)ccc12 ?
Yes

Would you kindly repeat that for CCC(C)S(=O)(=O)c1oc(-c2ccc(C)cc2)nc1S(=O)(=O)c1ccccc1 (configuration not stated) ?
Yes

Would you kindly repeat that for Cc1ccc(/C(CSc2nnc(-c3c[nH]c4ccccc34)n2-c2ccccc2)=N/O)cc1 ?
Yes

Would you kindly repeat that for O=[N+]([O-])c1ccc(-c2nc(-c3ccccc3)c(-c3ccccc3)n2-c2ccc(S(=O)(=O)Nc3ncccn3)cc2)cc1 ?
Yes

Would you kindly repeat that for Cn1cc(-c2cc(N)n3nc(-c4c[nH]c5ccc(Br)cc45)cc3n2)c2cccnc21 ?
No

Would you kindly repeat that for CC1(C)CC[C@]23CC[C@]4(C)[C@H](CC[C@@H]5[C@@]6(C)CC[C@H](N)C(C)(C)[C@@H]6CC[C@]54C)[C@H]2[C@H]1OC3=O ?
No

Would you kindly repeat that for [2H]C([2H])([2H])Oc1ccc2ncc(C#Cc3cncc(C(=O)Nc4ccc(CN5CCN(C)CC5)c(C(F)(F)F)c4)c3)n2n1 ?
No

Would you kindly repeat that for O=C(Nc1ccc(I)cc1F)c1cc(-c2ccc(F)cc2F)ccc1O ?
Yes

Would you kindly repeat that for Nc1nc(Nc2ccc(Cl)cc2)nn1Cc1cccc(Br)c1 ?
Yes

Would you kindly repeat that for CCN1CCN(Cc2ccc(C(=O)Nc3cccc(-c4cn(-c5ccc6oc(=O)ccc6c5)nn4)c3)cc2C(F)(F)F)CC1 ?
No

Would you kindly repeat that for C=C[C@H]1[C@H](O[C@@H]2OC(CO)[C@@H](O)[C@H](O)C2OC(=O)c2c(O)cc(O)cc2-c2cccc(O)c2)OC=C2C(=O)OCC[C@H]21 (some centres not stated) ?
Yes

Would you kindly repeat that for CC1(C)CC[C@]2(C(=O)N3CCOCC3)CC[C@]3(C)C(=CC[C@@H]4[C@@]5(C)CC[C@H](NCO)C(C)(C)[C@@H]5CC[C@]43C)[C@H]2C1 ?
No
